System: Shigella flexneri
Test: Antimicrobial activity against Shigella flexneri at 1 mg/ml by agar-well diffusion method
Assay type: functional
Conditions: read-out: IZ
Reported values of zone of inhibition at 1000 µg/mL for individual entries
OBSERVATION TYPE: zone of inhibition at 1000 µg/mL

RECORD SMILES	OBSERVATION TYPE	RESULT VALUE
N=C(N)NS(=O)(=O)c1ccc(/N=C/c2c[nH]c3ccccc23)cc1	zone of inhibition at 1000 µg/mL	22 mm
Cc1cc(NS(=O)(=O)c2ccc(/N=C/c3c[nH]c4ccccc34)cc2)no1	zone of inhibition at 1000 µg/mL	20 mm
Cc1cc(C)nc(NS(=O)(=O)c2ccc(/N=C/c3c[nH]c4ccccc34)cc2)n1	zone of inhibition at 1000 µg/mL	19 mm
